Target of assay: purified catalytic domain of recombinant human TACE (rhTACEc) (Homo sapiens, UniProt P78536, N452Q/S266A)
Construct: 6xHis (C); made in house; host or cells: baculovirus/Hi5 insect cells
Sequence (P78536 215-477 S266A/N452Q): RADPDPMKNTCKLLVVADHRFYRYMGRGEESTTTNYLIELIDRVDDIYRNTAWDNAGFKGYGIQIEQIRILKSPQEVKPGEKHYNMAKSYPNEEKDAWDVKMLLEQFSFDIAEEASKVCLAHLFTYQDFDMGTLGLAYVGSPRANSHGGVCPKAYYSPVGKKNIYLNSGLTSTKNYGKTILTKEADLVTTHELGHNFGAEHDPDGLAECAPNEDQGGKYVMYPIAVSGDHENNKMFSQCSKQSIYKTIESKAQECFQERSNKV
Measurement description: TACE kinetic assay: cleavage of internally quenched peptide substrate TNF-FRET 2 (Ki)
Type: biochemical
Condition details: TNF-FRET 2 substrate, read-out: Ki
Each entry below carries its recorded pKi.
Notebook: values listed as pKi are -log10 of the concentration (mol/L).

COc1ccc2c(c1)C(=O)N(C[C@@]1(c3cc4nc(N5C(=O)CC[C@H]5CO)ccc4o3)NC(=O)NC1=O)C2 [Compound 2156]    9.01

IN: Recorded pKi for COc1ccc2c(c1F)C(=O)N(C[C@@]1(c3cc4nc(N5CCN(C(C)C)CC5)ccc4o3)NC(=O)NC1=O)C2 [Compound 1706] , please?
OUT: 9.30

IN: Recorded pKi for COc1ccc2c(c1)C(=O)N(C[C@@]1(c3ccc(-c4ccc(F)c(C#N)c4)cc3)NC(=O)NC1=O)C2 [Compound 1506] , please?
OUT: 8.19

IN: Recorded pKi for COc1ccc2c(c1)C(=O)N(C[C@@]1(c3cc4ncc(CO)cc4o3)NC(=O)NC1=O)C2 [Compound 2320] , please?
OUT: 9.23

IN: Recorded pKi for COc1ccc2c(c1F)C(=O)N(C[C@@]1(c3cc4cc5c(c(F)c4o3)C(=O)NC5)NC(=O)NC1=O)C2 [Compound 2499] , please?
OUT: 9.48

IN: Recorded pKi for COc1ccc2c(c1)C(=O)N(C[C@@]1(c3cc4cc(-c5ccnc(N)n5)ccc4o3)NC(=O)NC1=O)C2 [Compound 2245] , please?
OUT: 9.34

IN: Recorded pKi for CCC1(c2cc(F)c3oc([C@]4(CN5Cc6ccc(OC)cc6C5=O)NC(=O)NC4=O)cc3c2)NC(=O)NC1=O (stereo partly drawn) [Compound 2210] , please?
OUT: 9.50

IN: Recorded pKi for COC(=O)c1cc2cc([C@]3(CN4Cc5ccc(OC)cc5C4=O)NC(=O)NC3=O)oc2cc1F [Compound 1271] , please?
OUT: 9.35

IN: Recorded pKi for O=C1NC(=O)[C@](CN2Cc3ccc(O)cc3C2=O)(c2cc3cnccc3o2)N1 [Compound 2188] , please?
OUT: 8.65

IN: Recorded pKi for COc1ccc2c(c1F)C(=O)N(C[C@@]1(c3cc4ncc(C(N)=O)cc4o3)NC(=O)NC1=O)C2 [Compound 1908] , please?
OUT: 9.38

IN: Recorded pKi for COc1ccc2c(c1)C(=O)N(C[C@@]1(c3cc4cc(-c5cccc(O)c5)ncc4o3)NC(=O)NC1=O)C2 [Compound 2242] , please?
OUT: 9.25

IN: Recorded pKi for CCN1CCN(c2nc3cc([C@]4(CN5Cc6ccc(OC)c(F)c6C5=O)NC(=O)NC4=O)oc3cc2F)CC1 [Compound 1709] , please?
OUT: 9.15

---

Target of assay: purified catalytic domain of recombinant human TACE (rhTACEc) (Homo sapiens, UniProt P78536, N452Q/S266A)
Construct: 6xHis (C); made in house; host or cells: baculovirus/Hi5 insect cells
Measurement description: TACE kinetic assay: cleavage of internally quenched peptide substrate TNF-FRET 2 (Ki)
Assay type: biochemical
Condition details: TNF-FRET 2 substrate, read-out: Ki
Each entry below carries its recorded Ki.
The response must be a number in nM with no trailing unit.

The examples below pair each entry with its known result.
COc1ccc2c(c1F)C(=O)N(C[C@@]1(c3cc4nc(C)c(N5CCC5=O)cc4o3)NC(=O)NC1=O)C2    1.25
COc1ccc2c(c1)C(=O)N(C[C@@]1(c3cn4c5c(sc4n3)CN(C)CC5)NC(=O)NC1=O)C2    4.23
COc1ccc2c(c1)C(=O)N(C[C@@]1(c3cc4cc(-c5csc(N)n5)ccc4o3)NC(=O)NC1=O)C2    0.243

Let us move to another entry and its Ki.
IN: Recorded Ki for COc1ccc2c(c1)C(=O)N(C[C@@]1(c3cc4cnc(N5CCCC5=O)cc4o3)NC(=O)NC1=O)C2 , please?
OUT: 0.972

---

Each entry below carries its recorded Ki.
Target of assay: purified catalytic domain of recombinant human TACE (rhTACEc) (Homo sapiens, UniProt P78536, N452Q/S266A)
Construct: 6xHis (C); made in house; host or cells: baculovirus/Hi5 insect cells
Measurement description: TACE kinetic assay: cleavage of internally quenched peptide substrate TNF-FRET 2 (Ki)
Assay type: biochemical
Condition details: TNF-FRET 2 substrate, read-out: Ki
// unit must come after the numeric part

The examples below pair each entry with its known result.
CCN1CCN(c2ccc3oc([C@]4(CN5Cc6ccc(OCC7CC7)c(F)c6C5=O)NC(=O)NC4=O)cc3n2)CC1    520 pM
COc1ccc2c(c1F)C(=O)N(C[C@@]1(c3cc4c(C)nc(C)cc4o3)NC(=O)NC1=O)C2    568 pM
COc1ccc2c(c1)C(=O)N(C[C@@]1(c3cc4ccc(C(=O)N5CCN(C)CC5)cc4o3)NC(=O)NC1=O)C2    1010 pM
COc1ccc2c(c1)C(=O)N(C[C@@]1(c3cc4cnc(Cl)nc4o3)NC(=O)NC1=O)C2    360 pM

IN: Recorded Ki for COc1ccc2c(c1F)C(=O)N(C[C@@]1(c3cc4nc(N(c5cn[nH]c5)C5CCN(C)CC5)ccc4o3)NC(=O)NC1=O)C2 , please?
OUT: 620 pM

IN: Recorded Ki for COc1ccc2c(c1)C(=O)N(C[C@@]1(c3cc4nc(-c5ccc(F)c(C#N)c5)ccc4o3)NC(=O)NC1=O)C2 , please?
OUT: 700 pM

---

Each entry below carries its recorded Ki.
Target of assay: purified catalytic domain of recombinant human TACE (rhTACEc) (Homo sapiens, UniProt P78536, N452Q/S266A)
Construct: 6xHis (C); made in house; host or cells: baculovirus/Hi5 insect cells
Measurement description: TACE kinetic assay: cleavage of internally quenched peptide substrate TNF-FRET 2 (Ki)
Assay type: biochemical
Condition details: TNF-FRET 2 substrate, read-out: Ki
The response must be a number in nM with no trailing unit.

The examples below pair each entry with its known result.
COc1ccc2c(c1)C(=O)N(C[C@@]1(c3cc4cc(C5(C)CNC(=O)N5)cc(C)c4o3)NC(=O)NC1=O)C2 (stereo partly drawn)    0.095
COc1ccc2c(c1)C(=O)N(C[C@@]1(c3cc4nc(N(C)c5ccncc5)ccc4o3)NC(=O)NC1=O)C2    0.881

Let us move to another entry and its Ki.
IN: Recorded Ki for COc1ccc2c(c1)C(=O)N(C[C@@]1(c3cc4c(Cl)nccc4o3)NC(=O)NC1=O)C2 , please?
OUT: 0.637

---

Target of assay: purified catalytic domain of recombinant human TACE (rhTACEc) (Homo sapiens, UniProt P78536, N452Q/S266A)
Construct: 6xHis (C); made in house; host or cells: baculovirus/Hi5 insect cells
Measurement description: TACE kinetic assay: cleavage of internally quenched peptide substrate TNF-FRET 2 (Ki)
Format: biochemical
Condition details: TNF-FRET 2 substrate, read-out: Ki
Each entry below carries its recorded Ki.
The response must be a number in pM with no trailing unit.

The examples below pair each entry with its known result.
COc1ccc2c(c1F)C(=O)N(C[C@@]1(c3cc4cc(-c5cc(=O)[nH]c(N)n5)ccc4o3)NC(=O)NC1=O)C2 [Compound 300]    538
CCN1CCN(c2ccc3oc(C4(CN5CCc6ccsc6C5=O)NC(=O)NC4=O)cc3n2)CC1 (stereo not drawn) [Compound 2496]    660

Let us move to another entry and its Ki.
IN: Recorded Ki for COc1ccc2c(c1F)C(=O)N(C[C@@]1(c3cc4nc(N5CCC(OC)(OC)CC5)ccc4o3)NC(=O)NC1=O)C2 [Compound 1715] , please?
OUT: 2790

---

Target of assay: purified catalytic domain of recombinant human TACE (rhTACEc) (Homo sapiens, UniProt P78536, N452Q/S266A)
Construct: 6xHis (C); made in house; host or cells: baculovirus/Hi5 insect cells
Measurement description: TACE kinetic assay: cleavage of internally quenched peptide substrate TNF-FRET 2 (Ki)
Format: biochemical
Condition details: TNF-FRET 2 substrate, read-out: Ki
pKi: −log10 of the molar value.
Returns T if the recorded pKi is greater than or equal to 9, and F otherwise.

IN: Assess whether reported pKi for COc1ccc2c(c1)C(=O)N(C[C@@]1(c3cc4cc(C(=NO)N5CCOCC5)ccc4o3)NC(=O)NC1=O)C2 sits at 9 or higher.
OUT: T

IN: Assess whether reported pKi for COc1ccc2c(c1F)C(=O)N(C[C@@]1(c3cc4c(Cl)nccc4o3)NC(=O)NC1=O)C2 sits at 9 or higher.
OUT: T

Attribution: patent US8569336B2
